Recorded Dmax values for a group of compounds are listed next.
Target: BRD9 (Homo sapiens)
Sequence (Q9H8M2 whole entry): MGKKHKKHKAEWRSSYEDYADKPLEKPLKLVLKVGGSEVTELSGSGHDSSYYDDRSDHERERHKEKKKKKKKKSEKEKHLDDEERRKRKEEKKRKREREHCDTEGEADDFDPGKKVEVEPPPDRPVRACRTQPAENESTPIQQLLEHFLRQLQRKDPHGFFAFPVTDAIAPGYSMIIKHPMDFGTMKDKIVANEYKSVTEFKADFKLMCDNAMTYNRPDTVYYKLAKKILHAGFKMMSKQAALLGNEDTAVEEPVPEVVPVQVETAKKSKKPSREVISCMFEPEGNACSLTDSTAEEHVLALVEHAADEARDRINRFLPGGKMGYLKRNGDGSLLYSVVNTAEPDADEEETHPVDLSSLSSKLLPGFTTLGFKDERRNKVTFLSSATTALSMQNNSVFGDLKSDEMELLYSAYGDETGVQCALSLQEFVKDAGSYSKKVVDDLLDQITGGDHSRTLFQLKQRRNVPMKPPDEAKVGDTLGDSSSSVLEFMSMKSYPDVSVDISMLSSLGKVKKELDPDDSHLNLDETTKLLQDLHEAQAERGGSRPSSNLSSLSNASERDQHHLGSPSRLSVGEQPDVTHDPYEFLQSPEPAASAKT
Test: Degradation of BRD9 (IF), immunofluorescence in MV4-11 cells, 24 hours (Assay Protocol 2)
Assay type: cell-based
Parameters: A suspension of MV4-11 cells (ATCC CRL-9591) was prepared; host or cells: MV4-11
Conditions: MV4-11, Assay protocol 2; BRD9 degradation; read-out: Dmax

// known answers, use as guide
compound	assay-value
COc1cc(-c2cn(C)c(=O)c(C)c2C)cc(OC)c1CN(C)C(=O)c1ccc2c(c1)CCN(C(=O)/C(C#N)=C/c1cccc(Br)n1)C2C (mixture of isomers) [Compound B17]	40 to 70%
COc1cc(-c2cn(C)c(=O)c(C)c2C)cc(OC)c1CN(C)Cc1cccc2c1CCN(C(=O)/C(C#N)=C/c1cccc(C(F)(F)F)n1)C2C (mixture of isomers) [Compound B15]	> 75%
COc1ccnc(/C=C(\C#N)C(=O)N2CCc3c(CN4CCN(Cc5c(OC)cc(-c6cn(C)c(=O)c(C)c6C)cc5OC)CC4)cccc3C2C)c1 (mixture of isomers) [Compound B52]	40 to 70%
COc1cc(-c2cn(C)c(=O)c3ccsc23)cc(OC)c1CN1CCC(Oc2cccc3c2CCN(C(=O)/C(C#N)=C/c2cccc(Br)n2)C3C)CC1 (mixture of isomers) [Compound B77]	40 to 70%

For record COc1cc(-c2cn(C)c(=O)c(C)c2C)cc(OC)c1CN1CCN(C(=O)CCCCOc2ccc(C3CCCN3C(=O)/C(C#N)=C/c3nccs3)cc2)CC1 (mixture of isomers) [Compound B82] the listed Dmax is 40 to 70%

// data source = patent US20260092061A1
